Assay: In vitro metabolism (substrate disappearance) in pooled human liver microsomes
Format: in vitro ADME
Conditions: both sexes, pH 7.4; human hepatic microsomes, Michaelis-Menten clearance model fit, high-affinity/low-capacity enzyme; read-out: Km 1
experimental endpoint: Km (µM)

compound="c1ccc2c(c1)cc1ccc3cccc4ccc2c1c34 [BaP, benzo[a]pyrene]" test_value=0.088

----------
Test system: DBC metabolism in human hepatic microsomes
Assay: Competitive inhibition of DBC metabolism in human hepatic microsomes
Assay type: in vitro ADME
Conditions: both sexes, human, pH 7.4
experimental endpoint: inhibition at 1 µM (%)

compound="c1ccc2c(c1)cc1ccc3cccc4ccc2c1c34 [BaP, benzo[a]pyrene]" test_value=62

----------
Target: benzo[a]pyrene (BaP) metabolism in human hepatic microsomes
Assay: Competitive inhibition of BaP metabolism in human hepatic microsomes
Details: read-out: Inhibition constant (Ki) of competitive inhibitor to BaP metabolism; substrate BaP 0.14-0.18 µM initial, human hepatic microsomes, apparent Ki, Equation (4)
pKi: −log10 of the molar value.
experimental endpoint: pKi

compound="c1ccc2c(c1)cc1ccc3cccc4c5ccccc5c2c1c34 [DBC, dibenzo[def,p]chrysene]" test_value=6.36

----------
Test system: human hepatic microsomes
Assay: In vitro metabolism (substrate disappearance) in pooled human liver microsomes
Type: in vitro ADME
Settings: human hepatic microsomes, Michaelis-Menten clearance model fit, high-affinity/low-capacity enzyme; read-out: Km 1
experimental endpoint: Km (µM)

compound="c1ccc2c(c1)cc1ccc3cccc4c5ccccc5c2c1c34 [DBC, dibenzo[def,p]chrysene]" result_unit=µM test_value=0.06

----------
Experiment: In vitro metabolism (substrate disappearance) in pooled human liver microsomes
Type: in vitro ADME
Conditions: both sexes, human, microsomes, pH 7.4, human hepatic microsomes, first order phase, Vmax divided by Km; read-out: Clint 1
experimental endpoint: microsomal CLint (µL/min/mg)

compound="c1ccc2c(c1)cc1ccc3cccc4ccc2c1c34 [BaP, benzo[a]pyrene]" test_value=72

----------
Experiment: In vitro metabolism (substrate disappearance) in pooled human liver microsomes
Assay type: in vitro ADME
Settings: both sexes, human, microsomes, pH 7.4, human hepatic microsomes, non-saturable low-affinity/high-capacity enzyme; read-out: Clint 2
Description: Pooled human liver microsome samples were obtained from Sekisui Xenotech, LLC (Kansas City, KS, USA). […] Analytes were extracted from samples with liquid–liquid extraction and measured using high-performance liquid chromatography (HPLC). […] Analytes were quantified by reverse phase HPLC using an Agilent 1260 Infinity HPLC system equipped with an Agilent G4290B variable wavelength detector and an Agilent G1321B SPECTRA fluorescence detector (Santa Clara, CA, USA). […]
experimental endpoint: microsomal CLint (µL/min/mg)

compound="c1ccc2c(c1)cc1ccc3cccc4ccc2c1c34 [BaP, benzo[a]pyrene]" experimental_endpoint="microsomal CLint" test_value=1.2

The values you see were collected from paper PMC9323266.
